Target: T1, Macaca fascicularis (mf) RET.mmh (Macaca fascicularis)
T1 construct: also called monkey RET
T1 chain: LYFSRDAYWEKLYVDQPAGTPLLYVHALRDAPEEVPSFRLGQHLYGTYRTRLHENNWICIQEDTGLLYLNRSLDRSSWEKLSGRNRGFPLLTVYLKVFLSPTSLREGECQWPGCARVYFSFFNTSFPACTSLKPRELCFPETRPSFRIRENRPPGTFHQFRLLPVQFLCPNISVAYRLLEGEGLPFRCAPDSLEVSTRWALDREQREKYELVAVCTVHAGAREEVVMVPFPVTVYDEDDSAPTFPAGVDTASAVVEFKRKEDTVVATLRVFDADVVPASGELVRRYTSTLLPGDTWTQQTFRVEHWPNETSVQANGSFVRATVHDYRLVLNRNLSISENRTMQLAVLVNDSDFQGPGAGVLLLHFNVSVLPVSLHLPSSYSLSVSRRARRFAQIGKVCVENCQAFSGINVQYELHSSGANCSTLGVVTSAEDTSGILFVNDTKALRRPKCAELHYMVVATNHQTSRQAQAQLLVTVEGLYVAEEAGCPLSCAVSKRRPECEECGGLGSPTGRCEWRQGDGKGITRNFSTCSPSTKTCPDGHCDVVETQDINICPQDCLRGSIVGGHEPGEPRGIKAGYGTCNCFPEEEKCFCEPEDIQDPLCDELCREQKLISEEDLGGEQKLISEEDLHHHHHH
Experiment: SPR Biacore T200, mAb capture, 25 C
MEASURED_ATTRIBUTE: t½
Write your answer as a measured quantity: the number, then the unit.

I am curious: what t½ value has been reported for H4H8045P (antibody, human IgG4, V domains shown, human IgG4 Fc (H4H prefix)) VH: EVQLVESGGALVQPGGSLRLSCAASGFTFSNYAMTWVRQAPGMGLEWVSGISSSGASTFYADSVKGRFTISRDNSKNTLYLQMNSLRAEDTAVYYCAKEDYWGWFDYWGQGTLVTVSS VL: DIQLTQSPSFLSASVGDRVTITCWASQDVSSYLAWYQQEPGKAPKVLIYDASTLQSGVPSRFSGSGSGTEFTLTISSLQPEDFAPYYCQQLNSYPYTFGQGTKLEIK ? 4 min

I am curious: what t½ value has been reported for H4H8067P (antibody, human IgG4, V domains shown, human IgG4 Fc (H4H prefix)) VH: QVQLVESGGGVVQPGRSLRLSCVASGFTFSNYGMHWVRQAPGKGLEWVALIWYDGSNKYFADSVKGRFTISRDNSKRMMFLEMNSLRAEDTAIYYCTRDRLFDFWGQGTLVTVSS VL: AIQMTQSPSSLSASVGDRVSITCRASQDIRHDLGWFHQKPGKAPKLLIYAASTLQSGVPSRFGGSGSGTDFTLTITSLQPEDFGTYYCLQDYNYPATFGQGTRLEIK ? 0.3 min

I am curious: what t½ value has been reported for H4H8076P (antibody, human IgG4, V domains shown, human IgG4 Fc (H4H prefix)) VH: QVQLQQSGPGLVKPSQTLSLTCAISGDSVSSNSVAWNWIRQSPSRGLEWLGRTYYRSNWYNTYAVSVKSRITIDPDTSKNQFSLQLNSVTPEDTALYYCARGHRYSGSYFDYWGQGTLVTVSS VL: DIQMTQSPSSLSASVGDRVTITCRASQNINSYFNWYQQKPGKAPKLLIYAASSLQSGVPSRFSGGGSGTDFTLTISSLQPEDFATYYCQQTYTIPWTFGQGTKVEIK ? 35 min
